A collection of sequences and their measured pIC50
system: I-A^g7 (Mus musculus, UniProt P04228+Q31135)
Assay type: binding, NOD mouse
No end group written: not given here.
// returns pIC50 (minus log10 of molar concentration), number only

q: // Input: RTGIAQALSSFDLHS [330–344] . Output its pIC50 only.
a: 5.24

q: // Input: LTIQIESAADQDPSC [345–359] . Output its pIC50 only.
a: 5.96

q: // Input: GHVAGSLAILTDAA [91–104] . Output its pIC50 only.
a: 6.22

q: // Input: AVDGVISVHSLHIW [292–305] . Output its pIC50 only.
a: 5.29

q: // Input: SVRAAFVHALGDVF [212–225] . Output its pIC50 only.
a: 6.22

q: // Input: GYNHKDVQANASVR [201–214] . Output its pIC50 only.
a: 4.05

Cited source: paper PMC4171664
